# target.under.test: HLA-A*0201 (human)
# assay.notes: competition with 125I-labelled standard peptide 941.01 ([..]) for purified HLA-A*0201, gel filtration
Would you mind labelling by binding affinity ratio (IC50 of standard peptide / IC50 of test peptide)? At or over 0.0008 is y, under is n.

>>> assigned_label("TVAQVRGGMV (modifications not checked) [PSM peptide … (position 575, 10 amino acids)]")
"n"
>>> assigned_label("TTCYASGWGSI (modifications not checked) [Kallikrein (hK2) peptide … (position 150, 11 amino acids); the same letters in PSA at position 146]")
"n"
>>> assigned_label("TTVSGLQMAL (modifications not checked) [PAP peptide … (position 291, 10 amino acids)]")
"y"

stdin: Does binding affinity ratio (IC50 of standard peptide / IC50 of test peptide) meet or surpass 0.0008 for TVPLSEDQLL (modifications not checked) [PAP peptide … (position 145, 10 amino acids)] ?
stdout: n

stdin: Does binding affinity ratio (IC50 of standard peptide / IC50 of test peptide) meet or surpass 0.0008 for TVQAAAETL (modifications not checked) [PSM peptide … (position 738, 9 amino acids)] ?
stdout: n

stdin: Does binding affinity ratio (IC50 of standard peptide / IC50 of test peptide) meet or surpass 0.0008 for TVPLSEDQL (modifications not checked) [PAP peptide … (position 145, 9 amino acids)] ?
stdout: n

stdin: Does binding affinity ratio (IC50 of standard peptide / IC50 of test peptide) meet or surpass 0.0008 for TLSVTWIGA (modifications not checked) [PSA peptide … (position 5, 9 amino acids)] ?
stdout: y
